B1: CDC25A (parent)
chain: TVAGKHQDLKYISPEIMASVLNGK

variants of: B1; test: protein stability index of a GFP-peptide fusion (GPS, HEK-293T) (PSI 1-6); higher = more stable; conditions: c terminus: a fixed tail appended;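 also: lentivirally expressed fusions sorted by FACS into six bins by GFP to DsRed ratio, PSI derived from sequencing read proportions per bin multiplied by bin number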
Reported values of protein stability index for individual entries

residues	protein stability index
TVAGKHFDLKYISPEIMASVLNGK	2.3
TVAGKHQDLKYISPEIMASVLNIK	2.48
TVAGKHQDLKYISPEIMACVLNGK	2.46
TVAGKHQDLKYISPCIMASVLNGK	2.25
TVAGKHQDLKYISPEIMASNLNGK	3.38
TVAYKHQDLKYISPEIMASVLNGK	3.09
TVAGKHQDLKYISPEKMASVLNGK	3.42
TVAGKHQFLKYISPEIMASVLNGK	1.87
TVAGKHQDLKYISPEIMASLLNGK	2.84
TVAGKHQDLKYISPEIMASVLNGI	2.01
TVAGKHQDLKYISPMIMASVLNGK	2.19
TVAGKHQDLKYISPEIMASVHNGK	4.05
TVWGKHQDLKYISPEIMASVLNGK	2.16
TVAGKHQDLKYISPEIMAMVLNGK	2.38
TVAGKHQDLKYISPEIMASVLNKK	3.36
TVAGKHQDLVYISPEIMASVLNGK	2.24
TVAGKHQDQKYISPEIMASVLNGK	3.71
TVAGKDQDLKYISPEIMASVLNGK	3.92
TVAGKHQDLKYISPEIMASVCNGK	3.54
TVAGKHQDLKYISPEIMASVLNQK	3.4
TVAGKHQDLKYISPEPMASVLNGK	4.45
TVAGKHQDLKYISPEIMYSVLNGK	2.65
TVAGKHQDLSYISPEIMASVLNGK	2.99
TVAGKHQDLKYISPEIMAAVLNGK	3.1
WVAGKHQDLKYISPEIMASVLNGK	2.06
TVAGKHQDLKYMSPEIMASVLNGK	3.48
TVAGKHQDLKYISPEIMAIVLNGK	2.16
TVAGKHQDLKYISPEICASVLNGK	3.42
TVAGKHQDLKYISPEIMASVLNPK	2.56
TVAGKHQDLKYISPEIMASVFNGK	3.16
TVAGKHQDLKYISPEIMASVINGK	3.35
TVAGKHQDLGYISPEIMASVLNGK	3.44
TVAGKHQDLKGISPEIMASVLNGK	3.87
